Target: hM4 (Homo sapiens, UniProt P08173)
Sequence (P08173 1-479): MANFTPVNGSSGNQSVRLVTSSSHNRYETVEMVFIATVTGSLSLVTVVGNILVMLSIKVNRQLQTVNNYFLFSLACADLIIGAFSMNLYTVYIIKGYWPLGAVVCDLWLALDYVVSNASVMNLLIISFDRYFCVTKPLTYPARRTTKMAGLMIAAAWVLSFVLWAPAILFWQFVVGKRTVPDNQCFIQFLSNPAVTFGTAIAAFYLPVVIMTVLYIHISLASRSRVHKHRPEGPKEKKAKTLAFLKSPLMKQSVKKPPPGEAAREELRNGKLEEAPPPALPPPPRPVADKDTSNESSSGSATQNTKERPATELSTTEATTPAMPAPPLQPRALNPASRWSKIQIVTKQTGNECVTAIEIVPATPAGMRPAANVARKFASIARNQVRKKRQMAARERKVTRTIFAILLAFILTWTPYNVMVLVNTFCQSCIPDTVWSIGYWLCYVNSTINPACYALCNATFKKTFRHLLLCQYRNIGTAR
Format: cell-based
Settings: hM4 potency relative to 10a
measured_endpoint: loss of potency (fold)

Input line: // lookup loss of potency (fold) for Cc1nnc2sc(C(=O)N3CC(O)(c4ccccc4)C3)c(N)c2c1C [Compound 11a]
Output line: ~ 10 fold

Input line: Name the recorded loss of potency (fold) for COc1ccc(C2CN(C(=O)c3sc4nnc(C)c(C)c4c3N)C2)cc1 [Compound 10i] .
Output line: ~ 3.5 fold

Input line: May I ask what loss of potency (fold) has been recorded for COC1(c2cccc(F)c2)CN(C(=O)c2sc3nnc(C)c(C)c3c2N)C1 [Compound 11b] ?
Output line: ~ 6 fold

Input line: Form field: reported loss of potency (fold) of COc1cccc(C2CN(C(=O)c3sc4nnc(C)c(C)c4c3N)C2)c1 [Compound 10h]
Output line: > 100 fold
